experiment: Determination of pharmacokinetic parameters in rats; details: male, Wistar (RccHan:WIST), rat, plasma, po, 2 mg/kg
quantity-name: AUC (ng·h/mL)

# AUC of COc1ncc(-c2cc(C(F)(F)F)ccc2N2CCN(C(=O)Cn3nc(C)cc3C)CC2)cn1 [reference compound 1] = 273

Recorded result, CSc1ncc(-c2cc(C(F)(F)F)ccc2N2CCN(C(=O)Cn3nc(C)cc3C)CC2)cn1 [reference compound 2] , AUC: 202

* * *

target: hERG K channel (Homo sapiens, UniProt Q12809); construct: host or cells: CHO; assay: hERG Q-Patch assay; assay type: cell-based; conditions: concentration 3000 nM; CHO cells expressing hERG; K+ tail current 3 min after application; mean of two or three experiments
Sequence (Q12809 whole entry): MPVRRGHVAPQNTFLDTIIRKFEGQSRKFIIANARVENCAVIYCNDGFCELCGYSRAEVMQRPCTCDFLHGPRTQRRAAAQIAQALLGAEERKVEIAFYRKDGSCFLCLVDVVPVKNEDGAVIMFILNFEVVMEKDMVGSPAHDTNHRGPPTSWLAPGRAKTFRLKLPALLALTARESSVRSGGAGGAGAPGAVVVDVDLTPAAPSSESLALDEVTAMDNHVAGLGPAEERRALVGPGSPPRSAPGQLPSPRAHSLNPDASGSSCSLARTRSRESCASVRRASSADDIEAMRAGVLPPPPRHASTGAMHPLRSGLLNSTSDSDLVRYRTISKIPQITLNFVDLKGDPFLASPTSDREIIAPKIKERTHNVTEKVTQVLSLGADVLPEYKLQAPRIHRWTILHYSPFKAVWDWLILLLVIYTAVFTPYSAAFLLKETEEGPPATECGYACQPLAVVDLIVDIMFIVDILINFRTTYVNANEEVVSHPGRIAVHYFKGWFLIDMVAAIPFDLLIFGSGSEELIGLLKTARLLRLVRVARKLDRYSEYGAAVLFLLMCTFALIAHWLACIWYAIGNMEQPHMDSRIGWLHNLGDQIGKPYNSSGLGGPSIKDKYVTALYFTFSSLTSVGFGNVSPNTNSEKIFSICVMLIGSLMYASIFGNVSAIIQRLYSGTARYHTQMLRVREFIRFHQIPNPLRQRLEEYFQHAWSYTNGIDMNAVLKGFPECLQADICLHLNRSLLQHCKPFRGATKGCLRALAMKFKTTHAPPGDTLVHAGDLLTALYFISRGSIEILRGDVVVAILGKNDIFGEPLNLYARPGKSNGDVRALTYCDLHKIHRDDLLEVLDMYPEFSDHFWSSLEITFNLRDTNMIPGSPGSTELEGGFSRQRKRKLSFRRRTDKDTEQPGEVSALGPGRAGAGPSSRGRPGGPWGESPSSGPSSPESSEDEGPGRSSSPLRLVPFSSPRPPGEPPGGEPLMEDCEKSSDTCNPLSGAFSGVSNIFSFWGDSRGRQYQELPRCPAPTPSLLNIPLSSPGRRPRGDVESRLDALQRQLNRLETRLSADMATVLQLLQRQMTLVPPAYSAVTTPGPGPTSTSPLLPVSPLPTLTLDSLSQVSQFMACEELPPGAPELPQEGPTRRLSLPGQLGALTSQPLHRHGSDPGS
Listing: % block of selected compounds
State just the number; it will be interpreted in %.

# % block (compound: Cc1nc(CO)nn1CC(=O)N1CCN(c2sc(C(F)(F)F)nc2-c2cnc(C(F)(F)F)nc2)C[C@H]1C [Example 44] ) is −6

The value of % block measured for the compound Cc1nc(C)n(CC(=O)N2CCN(c3sc(C(F)(F)F)nc3-c3ccc4c(c3)CCO4)C[C@H]2C)n1 [Example 40] turned out to be 25

Form field % block, entry Cc1nc(C(C)(C)O)nn1CC(=O)N1CCN(c2sc(C(F)(F)F)nc2-c2cnc(C(F)(F)F)nc2)C[C@H]1C [Example 48] : 2

Turning to the following compound.
Measured % block, Cc1nc(C)n(CC(=O)N2CCN(c3sc(C(F)(F)F)nc3-c3ccc4c(c3)CCCO4)C[C@H]2C)n1 [Example 21] : 12
